system: Hepatitis B virus; experiment: Inhibition of HBV antigen secretion; type: functional, organism-based
readoutName: pIC50
Friendly reminder that pIC50 comes from taking -log10 of the concentration in mol/L.

Query block: Tell me the measured pIC50 of CCCCC/N=C(\c1ccc(=O)n(CCCCC)c1)c1ccc(OC)cc1O , please.
Result block: 5.30

---

experiment: Cytotoxicity against mouse AML-12 cells after 48 hrs by MTT assay; format: cell-based
readoutName: CC50 at 48 h

Example entries and their recorded answers appear below.
1) O=C(NCc1ccccc1)c1ccc(Cl)c(S(=O)(=O)N2CCCCCC2)c1 | > 50 µM
2) O=C(NCc1ccc(F)c(F)c1)c1cc(S(=O)(=O)NC2CCCC2)ccc1F | > 50 µM

// next entry
Query block: Tell me the measured CC50 at 48 h of CCC(C)NS(=O)(=O)c1ccc(F)c(C(=O)NCc2ccc(F)c(F)c2)c1 (stereo not drawn) , please.
Result block: > 50 µM

---

Readings of CC50 for the listed compounds
test: Cytotoxicity against human HuH7 cells; format: cell-based, Huh-7

1) Cc1cc(C)n2[nH]c(=S)nc2n1 | > 50 µM

// next entry
Query block: Tell me the measured CC50 of O=C1OC(OCc2ccccc2)=N/C1=C\c1ccccc1 , please.
Result block: > 50 µM

---

assay: Selectivity index, ratio of cytotoxicity against human HepG2.2.15 cells to IC50 for HBV DNA replication in HepG2.2.15 cells; assay type: toxicity, cell-based; conditions: read-out: Selectivity Index
Readings of selectivity ratio for the listed compounds

Example entries and their recorded answers appear below.
1) COc1cc2nc3c(cc2c(Cn2ccnc2C)c1O)CSc1cc(F)ccc1-3 | 60.3
2) CCOC(=O)c1cc2cc(OC)c(O)c(CN3CCCC3)c2nc1CSc1ccccc1 | 2.8

Query block: Tell me the measured selectivity ratio of CCOC(=O)c1cc2cc(OC)c(O)c(CN3C=NCC3)c2nc1C[S+]([O-])c1ccc(F)c(F)c1 (stereo not drawn) , please.
Result block: 61.6

---

test system: Hepatitis B virus; test: Inhibition of HBV DNA replication in HepAD38 cells; assay type: functional, organism-based
Readings of EC50 for the listed compounds
// note: answer is a bare numeric in nM

1) O=C(N/C(C(=O)N1CCCCC1)=C(/Cl)c1ccccc1)c1ccccc1 | 1200

// next entry
Query block: What is its EC50 for Hepatitis B virus? Entry: COc1ccccc1/C(Br)=C(\NC(=O)c1ccc([N+](=O)[O-])cc1)C(=O)N1CCCCC1
Result block: 130

---

experiment: Cytotoxicity against human HepAD38 cells; assay type: cell-based; details: read-out: TC50 (the source's name)
readoutName: CC50

1) O=C(N/C(C(=O)N1CCCCC1)=C(/Cl)c1ccccc1)c1ccccc1 | > 81 µM

Query block: Tell me the measured CC50 of COc1ccccc1/C(Br)=C(\NC(=O)c1ccc([N+](=O)[O-])cc1)C(=O)N1CCCCC1 , please.
Result block: > 61 µM

---

test: Cytotoxicity against human HepDE19 cells after 7 days by MTT assay; type: cell-based
readoutName: CC50 at 168 h

1) O=C(CN(c1cc(C(F)(F)F)ccc1Cl)S(=O)(=O)c1ccccc1)NCc1ccncc1 | > 50 µM

// next entry
Query block: Tell me the measured CC50 at 168 h of Cc1nc2cc(NC(=O)c3ccc(S(=O)(=O)N(C)Cc4ccccc4)cc3)ccc2s1 , please.
Result block: > 2.57 µM

These measurements were taken from ChEMBL document CHEMBL3739304.
